Measured values drawn from ChEMBL document CHEMBL2040729 for this set.

17-beta-hydroxysteroid dehydrogenase type 2 (Homo sapiens, UniProt P37059) IC50 data
Sequence (P37059 whole entry): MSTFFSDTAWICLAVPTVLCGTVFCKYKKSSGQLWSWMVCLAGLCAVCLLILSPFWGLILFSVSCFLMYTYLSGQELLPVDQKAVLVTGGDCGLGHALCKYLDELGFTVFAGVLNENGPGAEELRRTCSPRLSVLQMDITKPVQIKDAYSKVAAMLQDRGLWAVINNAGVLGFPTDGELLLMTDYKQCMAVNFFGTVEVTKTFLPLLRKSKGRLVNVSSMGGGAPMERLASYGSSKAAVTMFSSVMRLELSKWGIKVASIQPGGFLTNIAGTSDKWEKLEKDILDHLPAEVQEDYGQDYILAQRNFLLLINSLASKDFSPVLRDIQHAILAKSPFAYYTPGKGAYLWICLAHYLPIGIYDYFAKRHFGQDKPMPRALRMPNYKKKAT
outcome measure: IC50 (nM)

O=[N+]([O-])c1ccccc1S(=O)(=O)Nc1cccc(-c2c(O)ccc3cc(-c4cccc(O)c4)ccc23)c1 238
O=S(=O)(Nc1cccc(-c2c(O)ccc3cc(-c4cccc(O)c4)ccc23)c1)c1ccc(F)cc1 834

(A) O=S(=O)(Nc1cccc(-c2c(O)ccc3cc(-c4cccc(O)c4)ccc23)c1)c1cccc(O)c1
(B) O=S(=O)(Nc1cccc(-c2c(O)ccc3cc(-c4cccc(O)c4)ccc23)c1)c1cc(F)c(Br)cc1F
-- ask Of A versus B , which is the one with smaller reported IC50? Return value: the label identifying the chosen record.
-- reply B
(B: 223 nM, A: 999 nM)
